- systemUnderTest: T1, human CAPRIN-1 protein on cell membrane surfaces of human cancer cells (human, UniProt Q14444 2-709)
- T1 construct: whole, on cells; Endogenous protein on cancer cells, stained without permeation of the cell membrane
- T1 sequence (looked up): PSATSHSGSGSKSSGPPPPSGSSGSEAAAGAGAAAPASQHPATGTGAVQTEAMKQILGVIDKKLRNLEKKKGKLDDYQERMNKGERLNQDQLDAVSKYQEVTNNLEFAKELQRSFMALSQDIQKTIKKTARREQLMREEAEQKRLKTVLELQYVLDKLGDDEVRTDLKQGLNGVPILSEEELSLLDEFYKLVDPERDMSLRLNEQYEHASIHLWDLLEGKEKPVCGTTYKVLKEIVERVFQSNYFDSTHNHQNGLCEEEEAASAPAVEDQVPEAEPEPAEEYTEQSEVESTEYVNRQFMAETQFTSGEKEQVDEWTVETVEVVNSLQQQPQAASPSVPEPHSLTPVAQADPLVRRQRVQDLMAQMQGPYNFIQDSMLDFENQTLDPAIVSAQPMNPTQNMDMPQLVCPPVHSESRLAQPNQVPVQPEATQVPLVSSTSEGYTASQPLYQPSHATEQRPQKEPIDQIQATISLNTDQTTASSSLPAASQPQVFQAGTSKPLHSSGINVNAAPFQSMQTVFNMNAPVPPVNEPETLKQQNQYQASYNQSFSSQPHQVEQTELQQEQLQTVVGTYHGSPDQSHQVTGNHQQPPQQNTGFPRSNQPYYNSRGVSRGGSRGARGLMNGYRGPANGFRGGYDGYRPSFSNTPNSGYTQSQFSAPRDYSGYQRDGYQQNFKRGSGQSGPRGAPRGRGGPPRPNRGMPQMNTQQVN
- measurementNotes: flow cytometry on cancer cells expressing CAPRIN-1
endpoint: binding result

Query: binding result lookup needed for anti-CAPRIN-1 antibody (ah) (antibody, V domains shown) VH: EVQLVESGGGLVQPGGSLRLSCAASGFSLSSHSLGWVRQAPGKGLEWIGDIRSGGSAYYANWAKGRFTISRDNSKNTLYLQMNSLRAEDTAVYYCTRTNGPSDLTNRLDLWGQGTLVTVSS VL: EQVLTQSPSSLSASVGDRVTINCQASQSLYNNENLAWFQQKPGKVPKRLIYGASTLASGVSSRFSGSGSGTEFTLTISNLQPEDFAIYYCLGEFSCGSADCFAFGGGTKVEIK , thanks.
Result: binds

Cited source for all entries: patent US20240325529A1
